Could you please report measured surface tension (dyne/cm^2) for the items listed next?
- testName: oil ink performance test: viscosity and surface tension
- Assay type: physicochemical
- Set-up: unit not given here
- conditionInfo: oil ink in dodecane
Give bare numbers.

Exam item: I am curious: what surface tension (dyne/cm^2) value has been reported for CCCCCCCCCCc1ccc(N=Nc2ccc(N=Nc3ccc4c5c(cccc35)NC(CC(C)C)(CC(C)C)N4)c3ccccc23)cc1 ?
Marked response: 24.8

Exam item: Okay, and CCCCc1ccc(N=Nc2ccc(N=Nc3ccc4c5c(cccc35)NC(CC(C)C)(CC(C)C)N4)c3ccccc23)cc1 ?
Marked response: 24.5

Exam item: Okay, and CCCCCCCCCCc1ccc(N=Nc2ccc(N=Nc3ccc4c5c(cccc35)NC(C)(CCCC)N4)c3ccccc23)cc1 (racemic) ?
Marked response: 23.6

Exam item: Okay, and CCCCCCCCc1ccc(N=Nc2ccc(N=Nc3ccc4c5c(cccc35)NC(CC)(CC)N4)c3ccccc23)cc1 ?
Marked response: 23.2

Parameters: items (list). Returns: surface tension (dyne/cm^2) for each item.
1. CCCCCCCCCCc1ccc(N=Nc2ccc(N=Nc3ccc4c5c(cccc35)NC(CC)(CC)N4)c3ccccc23)cc1
2. CCCCCCCCc1ccc(N=Nc2ccc(N=Nc3ccc4c5c(cccc35)NC(CC(C)C)(CC(C)C)N4)c3ccccc23)cc1

Marked response:
25.1
23.5
